# targetDesc: Human recombinant DPP-IV (Homo sapiens, UniProt P27487)
# Sequence (P27487 whole entry): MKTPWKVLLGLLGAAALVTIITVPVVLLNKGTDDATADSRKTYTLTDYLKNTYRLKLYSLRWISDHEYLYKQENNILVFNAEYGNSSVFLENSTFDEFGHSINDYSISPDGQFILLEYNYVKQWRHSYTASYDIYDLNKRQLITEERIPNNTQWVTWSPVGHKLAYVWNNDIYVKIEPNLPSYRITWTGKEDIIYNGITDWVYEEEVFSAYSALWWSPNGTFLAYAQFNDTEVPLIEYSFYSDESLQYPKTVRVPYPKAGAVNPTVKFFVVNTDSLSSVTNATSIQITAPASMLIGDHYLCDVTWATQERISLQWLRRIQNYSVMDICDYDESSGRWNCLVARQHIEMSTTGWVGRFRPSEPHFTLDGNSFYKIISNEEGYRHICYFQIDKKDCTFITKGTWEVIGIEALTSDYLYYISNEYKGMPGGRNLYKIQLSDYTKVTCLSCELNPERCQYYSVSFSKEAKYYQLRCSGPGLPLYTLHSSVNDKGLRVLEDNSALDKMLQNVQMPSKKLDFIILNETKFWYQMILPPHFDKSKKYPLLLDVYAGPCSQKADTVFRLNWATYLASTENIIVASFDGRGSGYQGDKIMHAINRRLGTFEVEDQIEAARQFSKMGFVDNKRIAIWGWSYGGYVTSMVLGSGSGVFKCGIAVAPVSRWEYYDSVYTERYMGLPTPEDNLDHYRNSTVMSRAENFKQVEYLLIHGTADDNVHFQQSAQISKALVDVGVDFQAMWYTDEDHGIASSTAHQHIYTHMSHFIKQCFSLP
# procedureText: Assay of Dipeptidyl Peptidase IV activity (hydrolysis of Ala-Pro-AFC, fluorometric)
# measurementParameters: human recombinant DPP-IV (expressed in insect Sf9 cells), 20 μM Ala-Pro-AFC, 15 min preincubation, 30 min at 37° C., pH 8.0
measurementType: IC50 (nM)

{"molecule": "N#C[C@@H]1CCCN1C(=O)CNC12CC3CC1CC(O)(C3)C2 (some centres unmarked)", "unitText": "nM", "IC50": 64.5}

[A] CN1CCN(CC23CC4CC(C2)C(NCC(=O)N2CCC[C@H]2C#N)(C4)C3)CC1 (some centres unmarked)
[B] N#C[C@@H]1CSCN1C(=O)CNC12CC3CC1CC(c1ccc(N4CCCC4=O)cc1)(C3)C2 (some centres unmarked)
[C] N#C[C@@H]1CCCN1C(=O)CNC12CC3CC(CC1C3)C2
IN: Rank descending by IC50. Lab note: record answer as labels in requested order.
OUT: A, C, B
(A: 100 nM, C: 30 nM, B: 8.7 nM)

[a] N#C[C@@H]1CSCN1C(=O)CNC12CC3CC1CC(Cn1cncn1)(C3)C2 (some centres unmarked)
[b] N#C[C@@H]1CCCN1C(=O)CNC12CC3CC1CC(c1ccc(N4CCNC4=O)cc1)(C3)C2 (some centres unmarked)
[c] N#C[C@@H]1CCCN1C(=O)CNC12CC3CC1CC(N1CCCS1(=O)=O)(C3)C2 (some centres unmarked)
IN: Rank descending by IC50. Lab note: record answer as labels in requested order.
OUT: c, b, a
(c: 30 nM, b: 15.4 nM, a: 7 nM)

###

# targetDesc: Human recombinant DPP-IV (Homo sapiens)
# procedureText: Assay of Dipeptidyl Peptidase IV activity (hydrolysis of Ala-Pro-AFC, fluorometric)
# measurementParameters: human recombinant DPP-IV (expressed in insect Sf9 cells), 20 μM Ala-Pro-AFC, 15 min preincubation, 30 min at 37° C., pH 8.0
pIC50: −log10 of the molar value.
measurementType: pIC50

[1] N#C[C@@H]1CCCN1C(=O)CNC12CC3CC1CC(Cc1ncon1)(C3)C2 (stereo partly shown) [Example 31]
[2] CCOC12CC3CC(C1)C(NCC(=O)N1CCC[C@H]1C#N)(C3)C2 (stereo partly shown) [Example 23]
[3] N#C[C@@H]1C[C@H](F)CN1C(=O)CNC12CC3CC1CC(Cn1cncn1)(C3)C2 (stereo partly shown) [Example 2]
[4] N#C[C@@H]1CCCN1C(=O)CNC12CC3CC1CC(F)(C3)C2 (stereo partly shown) [Example 25]
IN: Reorder the list above by recorded pIC50 in ascending order. Lab note: record answer as labels in requested order.
OUT: 4, 1, 2, 3
(4: 7.00, 1: 7.68, 2: 7.92, 3: 8.55)

###

# targetDesc: Human recombinant DPP-IV (Homo sapiens, UniProt P27487)
# procedureText: Assay of Dipeptidyl Peptidase IV activity (hydrolysis of Ala-Pro-AFC, fluorometric)
# measurementParameters: human recombinant DPP-IV (expressed in insect Sf9 cells), 20 μM Ala-Pro-AFC, 15 min preincubation, 30 min at 37° C., pH 8.0
# Protocol: Assay of Dipeptidyl Peptidase IV Activity The inhibition of proteolytic activity of DPP-IV was assayed by following the hydrolysis of Ala-Pro-7-amino-4-trifluoromethylcoumarin (Ala-Pro-AFC) and fluorometric quantitation of the liberated AFC. […] The AFC liberated was measured in a spectrofluorometer with excitation and emission wavelengths set at 400 nm and 510 nm, respectively. Results are expressed as percent inhibition of enzyme activity. […]
pIC50: −log10 of the molar value.
measurementType: pIC50

{"compound": "N#C[C@@H]1CCCN1C(=O)CNC12CC3CC1CC(c1ccc(-n4cccc4)cc1)(C3)C2 (stereo partly drawn)", "pIC50": "~7.52"}
{"compound": "N#C[C@@H]1CCCN1C(=O)CNC12CC3CC1CC(c1ccc([N+](=O)[O-])cc1)(C3)C2 (stereo partly drawn)", "pIC50": "~7.52"}

IN: Param item = N#C[C@@H]1CCCN1C(=O)CNC12CC3CC1CC(CN1C(=O)c4ccccc4C1=O)(C3)C2 (stereo partly drawn) ; retrieve measured pIC50.
OUT: ~7.52
